molecular target: GPR43 (Homo sapiens, UniProt O15552); construct: expressed in transfected cells; test: Calcium mobilization assay with probenecid; type: cell-based; conditions: GPR43 stably expressing cells; triggered with sodium acetate at EC80; 2.5 mM probenecid; read-out: GPR43 assay with probenicid IC50
Sequence (O15552 whole entry): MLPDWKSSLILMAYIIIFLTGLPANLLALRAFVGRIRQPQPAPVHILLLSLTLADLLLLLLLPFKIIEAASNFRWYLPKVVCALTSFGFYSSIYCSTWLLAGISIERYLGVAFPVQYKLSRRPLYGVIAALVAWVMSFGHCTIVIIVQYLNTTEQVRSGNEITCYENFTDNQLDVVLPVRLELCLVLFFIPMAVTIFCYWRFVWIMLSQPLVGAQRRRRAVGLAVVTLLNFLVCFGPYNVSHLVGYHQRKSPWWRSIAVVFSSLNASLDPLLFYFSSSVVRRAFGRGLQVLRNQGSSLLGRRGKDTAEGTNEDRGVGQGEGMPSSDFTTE
pIC50: −log10 of the molar value.
Form field: pIC50 (one value per entry).

CCOC(=O)CCCN(Cc1ccc2cn[nH]c2c1)C(=O)C1(C)CCN1C(=O)c1csc2ccccc12 (stereo not shown)    6.30 to 7.00
Cc1cccc(CN(CC(=O)O)C(=O)C2(C)CCN2C(=O)Cc2csc3ccccc23)c1 (stereo not shown)    6.00 to 6.30
CC1(C(=O)N(CCO)Cc2ccc(Cl)cc2)CCN1C(=O)Cc1csc2ccccc12 (stereo not shown)    < 6.00
COCCN(Cc1ccc(Cl)cc1)C(=O)C1(C)CCN1C(=O)Cc1cc(C)cc(C)c1 (stereo not shown)    < 6.00
CCN(Cc1ccc(Cl)cc1)C(=O)C1(C)CCN1C(=O)Cc1cc(C)cc(C)c1 (stereo not shown)    6.30 to 7.00

Item: CS(=O)(=O)NC(=O)CCCN(Cc1cccc(Cl)c1)C(=O)C1(Cc2ccccc2F)CCN1C(=O)c1csc2ccccc12 (stereo not shown) | pIC50: 6.00 to 6.30

For CC1(C(=O)N(CCCC(=O)O)Cc2ccc3cn[nH]c3c2)CCN1C(=O)Cc1coc2ccccc12 (stereo not shown) the compound record lists pIC50 as 6.30 to 7.00

For reference, reported pIC50 for CCCC1(C(=O)N(CCCC(=O)O)Cc2cccc(Cl)c2)CCN1C(=O)c1csc2ccccc12 (stereo not shown) stands at 7.00 to 11.00

The measured pIC50 associated with CN(Cc1ccc(Cl)cc1)C(=O)C1(C)CCN1C(=O)Cc1ccc(-c2cccc(Cl)c2)cc1 (stereo not shown) reads < 6.00

Recorded result, COC(=O)c1cccc(-c2ccc(CC(=O)N3CCC3(C)C(=O)N(C)Cc3ccc(Cl)cc3)cc2)c1 (stereo not shown) , pIC50: < 6.00

----------
Molecular target: GPR43 (Homo sapiens, UniProt O15552)
Construct: expressed in transfected cells
Test: Calcium mobilization assay with probenecid
Format: cell-based
Settings: GPR43 stably expressing cells; triggered with sodium acetate at EC80; 2.5 mM probenecid; read-out: GPR43 assay with probenicid IC50
Experimental: The following assay can be used for determination of GPR43 activation. The assay measures intracellular calcium release induced by activation of GPR43. […] To measure agonist activity of the compounds, compound was added to the well and the Ca^2+-flux was measured simultaneously to the […] of compound.
pIC50: −log10 of the molar value.
metric: pIC50

Cc1cc(C)cc(CC(=O)N2CCC2(C)C(=O)N(C)Cc2cccc(Br)c2)c1 (stereo not shown) [Compound 39]    < 6.00
Cc1cc(C)cc(CC(=O)N2CCC2(C)C(=O)N(CCCC(=O)O)Cc2ccc3ccoc3c2)c1 (stereo not shown) [Compound 162]    6.00 to 6.30
COc1ccccc1CC1(C(=O)N(CCCC(=O)O)Cc2cccc(Cl)c2)CCN1C(=O)c1csc2ccccc12 (stereo not shown) [Compound 247]    < 6.00

Summary for this compound, Cc1cc(C)cc(CC(=O)N2CCC2(C)C(=O)N(CC(=O)NC(C)C)Cc2ccc(Cl)cc2)c1 (stereo not shown) [Compound 80] : pIC50 is < 6.00

----------
target: GPR43 (Homo sapiens); construct: expressed in transfected cells; assay: Calcium mobilization assay with probenecid; type: cell-based; details: GPR43 stably expressing cells; triggered with sodium acetate at EC80; 2.5 mM probenecid; read-out: GPR43 assay with probenicid IC50
metric: IC50

CC1(C(=O)N(CCCC(=O)O)Cc2ccc(Cl)cc2)CCN1C(=O)Cc1coc2ccccc12 (stereo not shown) [Compound 103]    101 to 500 nM

# value of IC50, GPR43 (Homo sapiens), item CC1(C(=O)N(CCCC(=O)O)Cc2ccc3scnc3c2)CCN1C(=O)Cc1csc2ccccc12 (stereo not shown) [Compound 183] = 0.01 to 100 nM

# value of IC50, GPR43 (Homo sapiens), item CC1(C(=O)NCc2ccc(Cl)cc2)CCN1C(=O)Cc1csc2ccccc12 (stereo not shown) [Compound 57] = > 1000 nM

Field IC50 (GPR43 (Homo sapiens)), entry C[C@@H](c1cccc(Cl)c1)N(CCCC(=O)NS(C)(=O)=O)C(=O)[C@@]1(C)CCN1C(=O)c1csc2ccccc12 [Compound 231] : 0.01 to 100 nM

Noted IC50 for COc1cccc(OC(=O)N2CCC2(C)C(=O)N(CCCC(=O)O)Cc2ccc(Cl)cc2)c1 (stereo not shown) [Compound 218] , tested on GPR43 (Homo sapiens): 101 to 500 nM

Record for CNS(=O)(=O)CCCN(Cc1ccc(Cl)cc1)C(=O)C1(C)CCN1C(=O)Cc1cc(C)cc(C)c1 (stereo not shown) [Compound 174] under target or system GPR43 (Homo sapiens): IC50 reported as 101 to 500 nM

Tested on GPR43 (Homo sapiens): Cc1ccc(OC(=O)N2CCC2(C)C(=O)N(CCCC(=O)O)Cc2ccc(Cl)cc2)c(C)c1 (stereo not shown) [Compound 213] . Observed IC50: > 1000 nM

With GPR43 (Homo sapiens) as the test system, CN(Cc1ccc(Cl)cc1)C(=O)C1(C)CCN1C(=O)Cc1ccccc1Cl (stereo not shown) [Compound 9] showed IC50 of > 1000 nM

Field IC50 (system: GPR43 (Homo sapiens)) for entry Cc1cc(C)cc(CC(=O)N2CCC2(C)C(=O)N(Cc2ccc(Cl)cc2)CC(C)O)c1 (stereo not shown) [Compound 72] = 101 to 500 nM

Form: item CC1(C(=O)N(CCCC(=O)N2CCOCC2)Cc2ccc(Cl)cc2)CCN1C(=O)Cc1coc2ccccc12 (stereo not shown) [Compound 140] ; test system GPR43 (Homo sapiens); IC50: > 1000 nM

With GPR43 (Homo sapiens) as the test system, CC1(C(=O)N(CCCC(=O)O)Cc2ccc(Cl)cc2)CCN1C(=O)Oc1ccc(F)cc1Cl (stereo not shown) [Compound 239] showed IC50 of > 1000 nM

# IC50 measured on GPR43 (Homo sapiens) for item CN(Cc1ccc(Cl)cc1)C(=O)C1(C)CCN1C(=O)Cc1cccc2sccc12 (stereo not shown) [Compound 105] = > 1000 nM

Sample CN(Cc1ccc(Cl)cc1)C(=O)C1(C)CCN1C(=O)Cc1cccc(-c2ccccc2C(F)(F)F)c1 (stereo not shown) [Compound 28] , system: GPR43 (Homo sapiens). Its IC50 is > 1000 nM

# lookup: CC1(C(=O)N(CCCC(=O)O)Cc2ccc(Cl)cc2)CCN1C(=O)Oc1ccc(Cl)cc1Cl (stereo not shown) [Compound 238] on GPR43 (Homo sapiens), IC50 = > 1000 nM

Field IC50 (GPR43 (Homo sapiens)), entry Cc1cc(C)cc(CC(=O)N2CCC2(C)C(=O)N(CCc2cc(O)n(C)n2)Cc2ccc(Cl)cc2)c1 (stereo not shown) [Compound 117] : > 1000 nM

// assay GPR43 (Homo sapiens), entry CC1(C(=O)N(CCC(=O)O)Cc2ccc(Cl)cc2)CCN1C(=O)Cc1coc2ccccc12 (stereo not shown) [Compound 154] , IC50 value = > 1000 nM

----------
molecular target: GPR43 (Homo sapiens); construct: expressed in transfected cells; test: Calcium mobilization assay with probenecid; assay type: cell-based; conditions: GPR43 stably expressing cells; triggered with sodium acetate at EC80; 2.5 mM probenecid; read-out: GPR43 assay with probenicid IC50
// reported IC50 per item

Guide cases for IC50, answers given:
Cc1cc(C)cc(CC(=O)N2CCC2(C)C(=O)N(C)Cc2ccc(Cl)cc2Cl)c1 (stereo not shown)    > 1000 nM
Cc1cc(C)cc(CC(=O)N2CCC2(C)C(=O)N(CCC#N)Cc2ccc(Cl)cc2)c1 (stereo not shown)    101 to 500 nM
Cc1cc(C)cc(CC(=O)N2CCC2(C)C(=O)N(CCCS(N)(=O)=O)Cc2ccc(Cl)cc2)c1 (stereo not shown)    101 to 500 nM
O=C(O)CCCN(Cc1cccc(Cl)c1)C(=O)C1(Cc2ccc(F)cc2)CCN1C(=O)c1csc2ccccc12 (stereo not shown)    101 to 500 nM
COc1cccc(-c2ccc(CC(=O)N3CCC3(C)C(=O)N(C)Cc3ccc(Cl)cc3)cc2)c1 (stereo not shown)    > 1000 nM
CCC1(C(=O)N(CCCC(=O)O)Cc2cccc(Cl)c2)CCN1C(=O)c1csc2ccccc12 (stereo not shown)    0.01 to 100 nM

Let us examine a further case.
Reported IC50 for C[C@@H](c1ccc(Cl)cc1)N(CCCS(N)(=O)=O)C(=O)C1(C)CCN1C(=O)c1csc2ccccc12 (stereo partly shown) was 101 to 500 nM

----------
target: GPR43 (Homo sapiens, UniProt O15552); construct: expressed in transfected cells; assay: Calcium mobilization assay with probenecid; format: cell-based; conditions: GPR43 stably expressing cells; triggered with sodium acetate at EC80; 2.5 mM probenecid; read-out: GPR43 assay with probenicid IC50
metric: IC50

Cc1cc(C)cc(CC(=O)N2CCC2(C)C(=O)N(C)Cc2ccc(C(C)C)cc2)c1 (stereo not shown)    > 1000 nM

# IC50 of CC1(C(=O)N(CCCC(=O)O)Cc2ccc(C(F)(F)F)cc2)CCN1C(=O)Cc1coc2ccccc12 (stereo not shown) = 101 to 500 nM

Entry CC1(C(=O)N(CCCC(=O)O)Cc2ccc3cc[nH]c3c2)CCN1C(=O)Cc1coc2ccccc12 (stereo not shown) ; IC50 = 0.01 to 100 nM

In plain terms, CCC1(C(=O)N(CCCS(N)(=O)=O)c2ccc(Cl)cc2)CCN1C(=O)c1csc2ccccc12 (stereo not shown) has a documented IC50 of 101 to 500 nM
